assay: in vivo; conditions: male, Sprague Dawley, rat, plasma, iv, 10 mg/kg
Provide the reported half-life of each item.
Give bare numbers, in min.

The cases that follow already have their half-life on record.
compound	half-life / min
CCCCCCCCCCCCCCC(=O)NC(CC(=O)O)C(=O)NC1C(=O)N2CCCCC2C(=O)NC(C(C)C(=O)O)C(=O)NC(CC(=O)O)C(=O)NCC(=O)NC(CC(=O)O)C(=O)NCC(=O)NC(C(C)NC(=O)CCN)C(=O)NC(C(C)C)C(=O)N2CCCC2C(=O)NC1C (stereo not drawn)	275
CCCCCCCCCCCC(=O)Nc1ccc(C(=O)NC(CC(=O)O)C(=O)NC2C(=O)N3CCCCC3C(=O)NC(C(C)C(=O)O)C(=O)NC(CC(=O)O)C(=O)NCC(=O)NC(CC(=O)O)C(=O)NCC(=O)NC(C(C)NC(=O)CCN)C(=O)NC(C(C)C)C(=O)N3CCCC3C(=O)NC2C)cc1 (stereo not drawn)	424

Data request: Reported half-life for CCCCCCCCCCCCCCC(=O)NC(CC(=O)O)C(=O)NC1C(=O)N2CCCCC2C(=O)NC(C(C)C(=O)O)C(=O)NC(CC(=O)O)C(=O)NCC(=O)NC(CC(=O)O)C(=O)NCC(=O)NC(C(C)NC(=O)CNC(=O)[C@@H](N)CCCCN)C(=O)NC(C(C)C)C(=O)N2CCCC2C(=O)NC1C (stereo partly drawn) : what is it?
Data returned: 65.3
